Target: T1, 人LAG3抗原 (ACRO, Cat.LA3-H5222) (human, UniProt P18627 23-450)
T1 construct: Bought protein; also called human LAG3 antigen
T1 sequence (looked up): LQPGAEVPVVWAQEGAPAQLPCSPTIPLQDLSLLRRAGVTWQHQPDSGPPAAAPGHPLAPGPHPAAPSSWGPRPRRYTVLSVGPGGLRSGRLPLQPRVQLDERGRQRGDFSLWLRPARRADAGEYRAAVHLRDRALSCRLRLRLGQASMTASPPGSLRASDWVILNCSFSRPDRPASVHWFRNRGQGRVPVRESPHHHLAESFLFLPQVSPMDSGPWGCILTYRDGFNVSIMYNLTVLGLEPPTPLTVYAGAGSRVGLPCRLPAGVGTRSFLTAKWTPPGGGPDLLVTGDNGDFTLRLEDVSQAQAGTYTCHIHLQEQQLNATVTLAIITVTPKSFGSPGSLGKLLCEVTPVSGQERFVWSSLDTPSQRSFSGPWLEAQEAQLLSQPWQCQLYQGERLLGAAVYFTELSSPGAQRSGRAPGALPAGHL
Assay: indirect ELISA, coated human LAG3
recorded.endpoint: EC50 (µg/mL)

binder: hmL42人源化亲和力成熟变体 R3D4 (antibody, V domains shown) VH: QVQLVQSGAEVKKPGASVKVSCKASGYTFTDYEVHWVKQAPGQGLEWMGAIHPGSGGAAYNQKVKGKVTMTADTSISTAYMELSRLRSDDTAVYYCTSYGWNDWGQGTTVTVS VL: DIQLTQSPSFLSASVGDRVTITCKASQDVSTAVAWYQQKPGKSPKLLISWASTRHTGVPDRFAGSGSGTDFTLTISSLQPEDFATYYCQQYNVFAFTFGQGTKLEIK
recorded.endpoint: EC50
reported: 0.112

binder: hmL42人源化亲和力成熟变体 R2B11 (antibody, V domains shown) VH: QVQLVQSGAEVKKPGASVKVSCKASGYTFTDYEVHWVKQAPGQGLEWMGAIHPGSGGAAYNQKVKGKVTMTADTSISTAYMELSRLRSDDTAVYYCTSYGWNDWGQGTTVTVS VL: DIQLTQSPSFLSASVGDRVTITCKASQDVSTAVAWYQQKPGKSPKLLISWASTRHTGVPDRFAGSGSGTDFTLTISSLQPEDFATYYCQQYVVFSYSFGQGTKLEIK
recorded.endpoint: EC50
reported: 0.244

binder: hmL42人源化亲和力成熟变体 R2H11 (antibody, V domains shown) VH: QVQLVQSGAEVKKPGASVKVSCKASGYTFTDYEVHWVKQAPGQGLEWMGAIHPGSGGAAYNQKVKGKVTMTADTSISTAYMELSRLRSDDTAVYYCTSYGWNDWGQGTTVTVS VL: DIQLTQSPSFLSASVGDRVTITCKASQDVSTAVAWYQQKPGKSPKLLISWASTRHTGVPDRFAGSGSGTDFTLTISSLQPEDFATYYCQQYYSWSYTFGQGTKLEIK
recorded.endpoint: EC50
reported: 0.382

binder: hmL42人源化亲和力成熟变体 R3H5 (antibody, V domains shown) VH: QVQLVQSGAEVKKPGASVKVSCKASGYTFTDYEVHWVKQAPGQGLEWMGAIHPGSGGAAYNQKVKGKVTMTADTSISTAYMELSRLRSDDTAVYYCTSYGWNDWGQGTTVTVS VL: DIQLTQSPSFLSASVGDRVTITCKASQDVSTAVAWYQQKPGKSPKLLISWASTRHTGVPDRFAGSGSGTDFTLTISSLQPEDFATYYCQQYWVFSFTFGQGTKLEIK
recorded.endpoint: EC50
reported: 0.147

binder: hmL42人源化亲和力成熟变体 R3B6 (antibody, V domains shown) VH: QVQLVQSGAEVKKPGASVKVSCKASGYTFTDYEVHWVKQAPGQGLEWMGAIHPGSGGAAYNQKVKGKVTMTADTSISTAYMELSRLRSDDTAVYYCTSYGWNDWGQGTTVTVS VL: DIQLTQSPSFLSASVGDRVTITCKASQDVSTAVAWYQQKPGKSPKLLISWASTRHTGVPDRFAGSGSGTDFTLTISSLQPEDFATYYCQQYLSFPFMFGQGTKLEIK
recorded.endpoint: EC50
reported: 0.216

binder: hmL42人源化亲和力成熟变体 R3G5 (antibody, V domains shown) VH: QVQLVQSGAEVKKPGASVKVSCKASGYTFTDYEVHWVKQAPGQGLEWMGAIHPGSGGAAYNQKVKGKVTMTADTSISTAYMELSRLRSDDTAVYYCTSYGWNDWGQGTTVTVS VL: DIQLTQSPSFLSASVGDRVTITCKASQDVSTAVAWYQQKPGKSPKLLISWASTRHTGVPDRFAGSGSGTDFTLTISSLQPEDFATYYCQQYVMFPFTFGQGTKLEIK
recorded.endpoint: EC50
reported: 0.138

binder: hmL42人源化亲和力成熟变体 R2E8 (antibody, V domains shown) VH: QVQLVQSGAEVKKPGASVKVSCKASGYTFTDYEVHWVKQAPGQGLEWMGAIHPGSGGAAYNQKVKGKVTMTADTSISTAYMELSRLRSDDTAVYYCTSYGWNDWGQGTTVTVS VL: DIQLTQSPSFLSASVGDRVTITCKASQDVSTAVAWYQQKPGKSPKLLISWASTRHTGVPDRFAGSGSGTDFTLTISSLQPEDFATYYCHQYIMFPYTFGQGTKLEIK
recorded.endpoint: EC50
reported: 0.204

binder: hmL42人源化亲和力成熟变体 R2D12 (antibody, V domains shown) VH: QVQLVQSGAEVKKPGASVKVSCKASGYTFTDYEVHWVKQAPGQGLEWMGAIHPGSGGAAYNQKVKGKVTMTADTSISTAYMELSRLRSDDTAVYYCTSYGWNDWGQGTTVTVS VL: DIQLTQSPSFLSASVGDRVTITCKASQDVSTAVAWYQQKPGKSPKLLISWASTRHTGVPDRFAGSGSGTDFTLTISSLQPEDFATYYCQQYMSFAFTFGQGTKLEIK
recorded.endpoint: EC50
reported: 0.119

binder: hmL42人源化亲和力成熟变体 R2A8 (antibody, V domains shown) VH: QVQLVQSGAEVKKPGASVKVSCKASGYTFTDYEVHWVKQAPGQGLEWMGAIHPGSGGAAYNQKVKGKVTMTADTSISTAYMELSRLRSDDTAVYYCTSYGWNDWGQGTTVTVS VL: DIQLTQSPSFLSASVGDRVTITCKASQDVSTAVAWYQQKPGKSPKLLISWASTRHTGVPDRFAGSGSGTDFTLTISSLQPEDFATYYCMGYWVFPYTFGQGTKLEIK
recorded.endpoint: EC50
reported: 0.132

binder: hmL42人源化亲和力成熟变体 R2 (antibody, V domains shown) VH: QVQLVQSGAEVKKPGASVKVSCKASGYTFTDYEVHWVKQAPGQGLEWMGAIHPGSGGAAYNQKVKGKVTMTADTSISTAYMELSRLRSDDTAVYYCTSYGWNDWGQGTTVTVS VL: DIQLTQSPSFLSASVGDRVTITCKASQDVSTAVAWYQQKPGKSPKLLISWASTRHTGVPDRFAGSGSGTDFTLTISSLQPEDFATYYCMGYLFFPYTFGQGTKLEIK
recorded.endpoint: EC50
reported: 0.202
